# activity at 10 µM annotations
test system: SK-MEL-28; test: NCI-60 anticancer screen (SRB; single dose and five doses); conditions: Homo sapiens, SK-MEL-28, 48 h, read-out: Growth Percentage
readout_name: activity at 10 µM (%)

molecule="COc1ccc(/C=C/C(=O)c2sc(=S)[nH]c2C)c(OC)c1 [2n]" unit_text=% numeric_readout=92.8
molecule="Cc1[nH]c(=S)sc1C(=O)/C=C/c1ccc(F)cc1 [2c]" unit_text=% numeric_readout=50.6
molecule="Cc1[nH]c(=S)sc1C(=O)/C=C/c1cccc([N+](=O)[O-])c1 [2h]" unit_text=% numeric_readout=-47
molecule="Cc1[nH]c(=S)sc1C(=O)/C=C/c1ccc(N(C)C)cc1 [2k]" unit_text=% numeric_readout=92.7
molecule="Cc1[nH]c(=S)sc1C(=O)/C=C/c1ccccc1Cl [2d]" unit_text=% numeric_readout=101

---

readout_name: melting point

molecular_string=COc1ccc(/C=C/C(=O)c2sc(=S)[nH]c2C)c(OC)c1 readout_name="melting point" result="255 to 257 °C"
molecular_string=COc1ccc(/C=C/C(=O)c2sc(=S)[nH]c2C)cc1 readout_name="melting point" result="246 to 248 °C"
molecular_string=COc1cccc(/C=C/C(=O)c2sc(=S)[nH]c2C)c1OC readout_name="melting point" result="239 to 240 °C"

---

# pIC50 annotations
test system: TK-10; assay: NCI-60 anticancer screen (SRB; single dose and five doses); conditions: Homo sapiens, TK-10
pIC50: −log10 of the molar value.
readout_name: pIC50

molecular_string=Cc1[nH]c(=S)sc1C(=O)/C=C/c1ccc(Cl)cc1 numeric_readout=4.55
molecular_string=Cc1[nH]c(=S)sc1C(=O)/C=C/c1cccc(Cl)c1 numeric_readout=4.34
molecular_string=COc1cc(/C=C/C(=O)c2sc(=S)[nH]c2C)cc(OC)c1OC numeric_readout=4.79
molecular_string=Cc1[nH]c(=S)sc1C(=O)/C=C/c1cccc([N+](=O)[O-])c1 numeric_readout=4.64

---

IGROV1 GI50 data
readout_name: GI50 (µM)

compound="Cc1[nH]c(=S)sc1C(=O)/C=C/c1cccc([N+](=O)[O-])c1 [2h]" unit_text=µM numeric_readout=3.02
compound="Cc1[nH]c(=S)sc1C(=O)/C=C/c1ccc(Br)cc1 [2g]" unit_text=µM numeric_readout=3.29
compound="Cc1[nH]c(=S)sc1C(=O)/C=C/c1ccc([N+](=O)[O-])cc1 [2i]" unit_text=µM numeric_readout=4.43
compound="Cc1[nH]c(=S)sc1C(=O)/C=C/c1ccc(F)cc1 [2c]" unit_text=µM numeric_readout=4.93
compound="Cc1[nH]c(=S)sc1C(=O)/C=C/c1ccc(Cl)cc1 [2f]" unit_text=µM numeric_readout=13.2
compound="Cc1[nH]c(=S)sc1C(=O)/C=C/c1cccc(Cl)c1 [2e]" unit_text=µM numeric_readout=2.45
compound="COc1ccc(/C=C\\c2cc(OC)c(OC)c(OC)c2)cc1O [CA-4, Combretastatin-A4, reference compound]" unit_text=µM numeric_readout=0.06
compound="COc1cc(/C=C/C(=O)c2sc(=S)[nH]c2C)cc(OC)c1OC [2p]" unit_text=µM numeric_readout=3.31

---

test system: LOX IMVI; assay: NCI-60 anticancer screen (SRB; single dose and five doses); details: Homo sapiens, read-out: LC50
# CC50 annotations
readout_name: CC50

molecular_string=Cc1[nH]c(=S)sc1C(=O)/C=C/c1ccc([N+](=O)[O-])cc1 result="8.91 µM"
molecular_string=Cc1[nH]c(=S)sc1C(=O)/C=C/c1ccc(Br)cc1 result="33.7 µM"
molecular_string=Cc1[nH]c(=S)sc1C(=O)/C=C/c1cccc([N+](=O)[O-])c1 result="6.03 µM"
molecular_string=Cc1[nH]c(=S)sc1C(=O)/C=C/c1cccc(Cl)c1 result="5.75 µM"
molecular_string=COc1cc(/C=C/C(=O)c2sc(=S)[nH]c2C)cc(OC)c1OC result="38.9 µM"
molecular_string=Cc1[nH]c(=S)sc1C(=O)/C=C/c1ccc(F)cc1 result="36.6 µM"
molecular_string=Cc1[nH]c(=S)sc1C(=O)/C=C/c1ccc(Cl)cc1 result="38 µM"

---

# TGI annotations
tested on: MDA-MB-468; test: NCI-60 anticancer screen (SRB; single dose and five doses); assay type: cell-based, human; conditions: MDA-MB-468, Breast Cancer, five dose
readout_name: TGI (µM)

molecular_string=Cc1[nH]c(=S)sc1C(=O)/C=C/c1ccc(F)cc1 numeric_readout=6.46
molecular_string=Cc1[nH]c(=S)sc1C(=O)/C=C/c1ccc([N+](=O)[O-])cc1 numeric_readout=8
molecular_string=Cc1[nH]c(=S)sc1C(=O)/C=C/c1ccc(Cl)cc1 numeric_readout=8.32
molecular_string=COc1cc(/C=C/C(=O)c2sc(=S)[nH]c2C)cc(OC)c1OC numeric_readout=4.47
molecular_string=Cc1[nH]c(=S)sc1C(=O)/C=C/c1cccc(Cl)c1 numeric_readout=15.85
molecular_string=Cc1[nH]c(=S)sc1C(=O)/C=C/c1cccc([N+](=O)[O-])c1 numeric_readout=10.72
molecular_string=Cc1[nH]c(=S)sc1C(=O)/C=C/c1ccc(Br)cc1 numeric_readout=6.77

---

test system: SNB-19
readout_name: GI50 (µM)

compound="COc1cc(/C=C/C(=O)c2sc(=S)[nH]c2C)cc(OC)c1OC [2p]" numeric_readout=5.01
compound="Cc1[nH]c(=S)sc1C(=O)/C=C/c1cccc([N+](=O)[O-])c1 [2h]" numeric_readout=4.9
compound="Cc1[nH]c(=S)sc1C(=O)/C=C/c1ccc(Br)cc1 [2g]" numeric_readout=3.47
compound="Cc1[nH]c(=S)sc1C(=O)/C=C/c1ccc(Cl)cc1 [2f]" numeric_readout=12
compound="Cc1[nH]c(=S)sc1C(=O)/C=C/c1ccc([N+](=O)[O-])cc1 [2i]" numeric_readout=5.42
compound="Cc1[nH]c(=S)sc1C(=O)/C=C/c1ccc(F)cc1 [2c]" numeric_readout=4.87

---

system: MOLT-4; experiment: NCI-60 anticancer screen (SRB; single dose and five doses); conditions: Homo sapiens, MOLT-4, 48 h, read-out: Growth Percentage
readout_name: activity at 10 µM

molecular_string=Cc1[nH]c(=S)sc1C(=O)/C=C/c1ccc([N+](=O)[O-])cc1 result=14.2%
molecular_string=Cc1[nH]c(=S)sc1C(=O)/C=C/c1cccc(Cl)c1 result=19.8%
molecular_string=Cc1[nH]c(=S)sc1C(=O)/C=C/c1ccccc1 result=74.2%
molecular_string=Cc1[nH]c(=S)sc1C(=O)/C=C/c1ccc(Br)cc1 result=30.2%
molecular_string=Cc1ccc(/C=C/C(=O)c2sc(=S)[nH]c2C)cc1 result=68.8%

---

system: K-562; assay: NCI-60 anticancer screen (SRB; single dose and five doses); details: Homo sapiens, K562
# IC50 annotations
readout_name: IC50 (µM)

molecule="Cc1[nH]c(=S)sc1C(=O)/C=C/c1cccc([N+](=O)[O-])c1 [2h]" unit_text=µM numeric_readout=3.72
molecule="Cc1[nH]c(=S)sc1C(=O)/C=C/c1ccc(Cl)cc1 [2f]" unit_text=µM numeric_readout=4.68
molecule="COc1cc(/C=C/C(=O)c2sc(=S)[nH]c2C)cc(OC)c1OC [2p]" unit_text=µM numeric_readout=3.72
molecule="Cc1[nH]c(=S)sc1C(=O)/C=C/c1cccc(Cl)c1 [2e]" unit_text=µM numeric_readout=4.27

---

system: OVCAR-5; assay: NCI-60 anticancer screen (SRB; single dose and five doses); conditions: Homo sapiens, OVCAR-5, read-out: TGI
readout_name: IC (TGI) (µM)

compound=Cc1[nH]c(=S)sc1C(=O)/C=C/c1ccc([N+](=O)[O-])cc1 target_under_test=OVCAR-5 numeric_readout=32.2
compound=Cc1[nH]c(=S)sc1C(=O)/C=C/c1cccc(Cl)c1 target_under_test=OVCAR-5 numeric_readout=19.9
compound=Cc1[nH]c(=S)sc1C(=O)/C=C/c1ccc(Br)cc1 target_under_test=OVCAR-5 numeric_readout=29.7
compound="COc1ccc(/C=C\\c2cc(OC)c(OC)c(OC)c2)cc1O [CA-4, Combretastatin-A4, reference compound]" target_under_test=OVCAR-5 numeric_readout=83.2
compound=Cc1[nH]c(=S)sc1C(=O)/C=C/c1ccc(F)cc1 target_under_test=OVCAR-5 numeric_readout=30

---

NCI-H23 GI50 data
readout_name: GI50 (µM)

molecular_string=Cc1[nH]c(=S)sc1C(=O)/C=C/c1ccc(F)cc1 target_under_test=NCI-H23 numeric_readout=10.6
molecular_string=Cc1[nH]c(=S)sc1C(=O)/C=C/c1cccc([N+](=O)[O-])c1 target_under_test=NCI-H23 numeric_readout=5.37
molecular_string=Cc1[nH]c(=S)sc1C(=O)/C=C/c1ccc(Br)cc1 target_under_test=NCI-H23 numeric_readout=8.23
molecular_string=Cc1[nH]c(=S)sc1C(=O)/C=C/c1cccc(Cl)c1 target_under_test=NCI-H23 numeric_readout=2.09
molecular_string=Cc1[nH]c(=S)sc1C(=O)/C=C/c1ccc([N+](=O)[O-])cc1 target_under_test=NCI-H23 numeric_readout=12.2
molecular_string=COc1cc(/C=C/C(=O)c2sc(=S)[nH]c2C)cc(OC)c1OC target_under_test=NCI-H23 numeric_readout=2.95
molecular_string=Cc1[nH]c(=S)sc1C(=O)/C=C/c1ccc(Cl)cc1 target_under_test=NCI-H23 numeric_readout=14.8

Provenance of the data: paper PMC11435058
